# Target: T1, MMP-26 catalytic domain, tagged with hexa-histidine (human, UniProt Q9NRE1 90-261)
# T1 construct: the forward primer adds Met-Ala before it; also called MMP-26 target protein; Matrilysin-2; not shown: Also any N-terminal residues added by the forward primer (Met-Ala according to our card; the primers were not visible to me)
# T1 sequence: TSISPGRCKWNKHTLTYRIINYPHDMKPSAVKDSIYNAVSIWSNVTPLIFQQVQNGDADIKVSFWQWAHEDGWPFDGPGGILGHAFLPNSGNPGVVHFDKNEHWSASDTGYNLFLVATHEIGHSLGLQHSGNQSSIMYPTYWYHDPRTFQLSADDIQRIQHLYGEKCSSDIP
# Assay info: bead-based ELISA, MMP-26 on nickel beads, IgG4 culture supernatant
// returns 0.0 unless F > B (fold over background) is strictly below 3 fold over background, in which case 1.0

Is the reported F > B (fold over background) for D07 (antibody, human IgG4, V domains shown, whole human IgG4) VH: EVQLLESGGGLVQPGGSLRLSCAASGFTFSEYNMFWVRQAPGKGLEWVSYIYSSGGSTDYADSVKGRFTISRDNSKNTLYLQMNSLRAEDTAVYYCARVGIAARPFDPWGQGTLVTVSS VL: QSELTQPASVSGSPGQSITISCTGTNSDIGGYNYVSWYQQHPGKVPKLLIFEVNNRPSGVSSRFSGSKSGDTASLTISGLQPEDEAVYYCGSFTVSVTYVFGTGTKVTVLG strictly below 3 fold over background?
0.0

Lab log: compare recorded F > B (fold over background) with 3 fold over background; is it strictly lower for D03 (antibody, human IgG4, V domains shown, whole human IgG4) VH: EVQLLESGGGLVQPGGSLRLSCAASGFTFSWYRMDWVRQAPGKGLEWVSVIGSSGGMTYYADSVKGRFTISRDNSKNTLYLQMNSLRAEDTAVYYCARRVVGGAGMDVWGQGTTVTVSS VL: DIQMTQSPSAMSASVGDRVTITCRASQVMINYIAWFRQKPGKVPERLIYAASTLQNGVPSRFSGSGSGTDFTLTISRLEPEDFAVYYCQHRITWPPALTFGGGTTVEIKR ?
1.0

Does the reported F > B (fold over background) of A09 (antibody, human IgG4, V domains shown, whole human IgG4) VH: EVQLLESGGGLVQPGGSLRLSCAASGFTFSWYDMYWVRQAPGKGLEWVSSIYSSGGYTAYADSVKGRFTISRDNSKNTLYLQMNSLRAEDTAVYYCAKDRDPCSRTTCYNWFDPWGQGTLVTVSS VL: QSELTQPPSASGTPGQRVTISCSGGSSNIGSNFVYWYRQLPGTAPKLLIYRNYQRPSGVPDRFSGSKSGTSASLAISGLLSEDEADYYCAAWDDNVGGVFGSGTKVTVLG stay below 3 fold over background?
1.0

Item C08 (antibody, human IgG4, V domains shown, whole human IgG4) VH: EVQLLESGGGLVQPGGSLRLSCAASGFTFSYYEMMWVRQAPGKGLEWVSSISPSGGPTMYADSVKGRFTISRDNSKNTLYLQMNSLRAEDTGVYYCARKMGRVGYCSSTSCYRDDYYGMDVWGQGTTVTVSS VL: DIQMTQSPPSLSALVGDRVTITCRASQSISRYVNWYQQKPGKAPKVLIYAASIVENGVPSRFSGSGSGTDFSLTISSLQPEDFATYYCQQTYSTPLTFGGGTKLAIKR : F > B (fold over background) beneath 3 fold over background, strictly?
0.0

Hello, is F > B (fold over background) of the following binder strictly smaller than 3 fold over background? A05 (antibody, human IgG4, V domains shown, whole human IgG4) VH: EVQLLESGGGLVQPGGSLRLSCAASGFTFSVYSMNWVRQAPGKGLEWVSYIVPSGGNTPYADSVKGRFTISRDNSKNTLYLQMNSLRAEDTAVYYCARDGAATVDLDYWGQGTLVTVSS VL: DIQMTQSPSSLSLSPGERATLSCRASQSVSSYLAWYQQKPGQAPRLLIYDASNRATGIPARFSGSGSGTDFTLTISSLEPEDFAVYYCQQRSNWPRTFGGGTKVEIKR
1.0
